src = ChEMBL document CHEMBL2150961

protocol.notes: Drug metabolism in mouse plasma at 0.1 mM after 1 min by HPLC-ESI-MS analysis
Format: ADME, cell-free
condition.info: read-out: Drug metabolism
assay.metric: metabolised at 1 min, 100 µM

**Q:** # lookup: metabolised at 1 min, 100 µM of CC(C)C[C@H](NC(=O)CNC(=O)[C@H](Cc1ccccc1)NC(=O)[C@H](CO)NC(=O)[C@H](CC(N)=O)NC(=O)[C@H](Cc1c[nH]c2ccccc12)NC(=O)[C@H](CC(N)=O)NC(=O)[C@@H](N)Cc1ccc(O)cc1)C(=O)N[C@@H](CCCNC(=N)N)C(=O)N[C@@H](Cc1ccccc1)C(N)=O
**A:** > 50%

----------
Below is a list of entries, each paired with its recorded pEC50 value.
experimental.target: UniProt Q969F8
protocol.notes: Agonist activity at human KISS1R assessed as induction of intracellular calcium mobilization by fluorometric analysis
Non-standard residues stand in square brackets, D forms with d. Residues, ends and D or L forms follow the SMILES beside them. 2Nal = N[C@@H](Cc1ccc2ccccc2c1)C(=O)O; Arg(Me) = CNC(=N)NCCC[C@H](N)C(=O)O; 3Pal = N[C@@H](Cc1cccnc1)C(=O)O; 4Pal = N[C@@H](Cc1ccncc1)C(=O)O; d4Pal = N[C@H](Cc1ccncc1)C(=O)O; azaGly = NNC(=O)O
The meaning of pEC50 here: minus log10 of the concentration in molar units.

compound	pEC50
CC[C@H](C)[C@H](NC(=O)[C@H](CC(N)=O)NC(=O)[C@H](N)Cc1ccc(O)cc1)C(=O)N[C@@H](CC(N)=O)C(=O)N[C@@H](CO)C(=O)N[C@@H](Cc1ccccc1)C(=O)NNC(=O)N[C@@H](CC(C)C)C(=O)N[C@@H](CCCNC(=N)NC)C(=O)N[C@@H](Cc1ccccc1)C(N)=O (H-[dY]NINSF[azaGly]L[Arg(Me)]F-NH2)	9.89
CNC(=N)NCCC[C@H](NC(=O)[C@H](CC(C)C)NC(=O)NNC(=O)[C@H](Cc1ccccc1)NC(=O)[C@H](CO)NC(=O)[C@H](CC(N)=O)NC(=O)[C@H](Cc1cccnc1)NC(=O)[C@H](CC(N)=O)NC(=O)[C@H](N)Cc1ccc(O)cc1)C(=O)N[C@@H](Cc1ccccc1)C(N)=O (H-[dY]N[3Pal]NSF[azaGly]L[Arg(Me)]F-NH2)	9.62
CNC(=N)NCCC[C@H](NC(=O)[C@H](CC(C)C)NC(=O)NNC(=O)[C@H](Cc1ccccc1)NC(=O)[C@H](CO)NC(=O)[C@H](CC(N)=O)NC(=O)[C@H](Cc1ccc2ccccc2c1)NC(=O)[C@H](CC(N)=O)NC(=O)[C@H](N)Cc1ccc(O)cc1)C(=O)N[C@@H](Cc1ccccc1)C(N)=O (H-[dY]N[2Nal]NSF[azaGly]L[Arg(Me)]F-NH2)	10.01

**Q:** State the recorded pEC50 for this entry: CNC(N)=NCCC[C@H](NC(=O)[C@H](CC(C)C)NC(=O)NNC(=O)[C@H](Cc1ccccc1)NC(=O)[C@H](CO)NC(=O)[C@H](CC(N)=O)NC(=O)[C@H](Cc1ccncc1)NC(=O)[C@H](CC(N)=O)NC(=O)[C@H](N)Cc1ccc(O)cc1)C(=O)N[C@@H](Cc1ccccc1)C(N)=O (H-[dY]N[4Pal]NSF[azaGly]L[Arg(Me)]F-NH2)
**A:** 9.96

**Q:** Please give the measured pEC50 for this compound: CNC(N)=NCCC[C@H](NC(=O)[C@H](CC(C)C)NC(=O)NNC(=O)[C@H](Cc1ccccc1)NC(=O)[C@H](CO)NC(=O)[C@H](CC(N)=O)NC(=O)[C@@H](Cc1ccncc1)NC(=O)[C@H](CC(N)=O)NC(=O)[C@H](N)Cc1ccc(O)cc1)C(=O)N[C@@H](Cc1ccccc1)C(N)=O (H-[dY]N[d4Pal]NSF[azaGly]L[Arg(Me)]F-NH2)
**A:** 9.23

**Q:** Could you tell me which pEC50 is on file for CNC(N)=NCCC[C@H](NC(=O)[C@H](CC(C)C)NC(=O)NNC(=O)[C@H](Cc1ccccc1)NC(=O)[C@H](CO)NC(=O)[C@H](CC(N)=O)NC(=O)[C@@H](Cc1c[nH]c2ccccc12)NC(=O)[C@H](CC(N)=O)NC(=O)[C@H](N)Cc1ccc(O)cc1)C(=O)N[C@@H](Cc1ccccc1)C(N)=O ?
**A:** 10.14

----------
Listed below: remaining at 5 min values for each entry.
protocol.notes: Metabolic stability of the compound in human serum assessed as compound residual ratio after 5 mins
Format: ADME, cell-free
condition.info: read-out: Stability
Non-standard residues stand in square brackets, D forms with d. Residues, ends and D or L forms follow the SMILES beside them. Arg(Me) = CNC(=N)NCCC[C@H](N)C(=O)O; azaGly = NNC(=O)O
Answer with a number only, understood to be in %.

**Q:** Name the recorded remaining at 5 min for CNC(N)=NCCC[C@H](NC(=O)[C@H](CC(C)C)NC(=O)NNC(=O)[C@H](Cc1ccccc1)NC(=O)[C@H](CO)NC(=O)[C@H](CC(N)=O)NC(=O)[C@H](CO)NC(=O)[C@H](CC(N)=O)NC(=O)[C@H](N)Cc1ccc(O)cc1)C(=O)N[C@@H](Cc1ccccc1)C(N)=O (H-[dY]NSNSF[azaGly]L[Arg(Me)]F-NH2) .
**A:** 86.5

**Q:** Which remaining at 5 min is reported for this compound? CNC(N)=NCCC[C@H](NC(=O)[C@H](CC(C)C)NC(=O)CNC(=O)[C@H](Cc1ccccc1)NC(=O)[C@H](CO)NC(=O)[C@H](CC(N)=O)NC(=O)[C@H](Cc1c[nH]c2ccccc12)NC(=O)[C@H](CC(N)=O)NC(=O)[C@H](N)Cc1ccc(O)cc1)C(=O)N[C@@H](Cc1ccccc1)C(N)=O
**A:** 90.7

**Q:** Suppose we examine the compound CC(C)C[C@H](NC(=O)CNC(=O)[C@H](Cc1ccccc1)NC(=O)[C@H](CO)NC(=O)[C@H](CC(N)=O)NC(=O)[C@H](Cc1c[nH]c2ccccc12)NC(=O)[C@H](CC(N)=O)NC(=O)[C@@H](N)Cc1ccc(O)cc1)C(=O)N[C@@H](CCCNC(=N)N)C(=O)N[C@@H](Cc1ccccc1)C(N)=O ; what remaining at 5 min value has been reported?
**A:** 0.9

----------
protocol.notes: Metabolic stability of the compound in mouse serum assessed as compound residual ratio at 0.1 mM after 1 hr
Format: ADME, cell-free
condition.info: read-out: Stability
Starred links: 1 amine or outer side, 2 acyl side, 3 side chain; linkers in the order of their positions; H or OH if unused. Non-standard residues stand in square brackets, D forms with d. Residues, ends and D or L forms follow the SMILES beside them. X1 = O=C(CNC(=S)[C@H](Cc1ccccc1)N[*:1])[*:2]; 2Nal = N[C@@H](Cc1ccc2ccccc2c1)C(=O)O; Arg(Me) = CNC(=N)NCCC[C@H](N)C(=O)O; 4Pal = N[C@@H](Cc1ccncc1)C(=O)O; azaGly = NNC(=O)O
remaining at 1 h, 100 µM for assorted compounds
Express it in %; write the number only.

compound	unit.label	remaining at 1 h, 100 µM
CNC(N)=NCCC[C@H](NC(=O)[C@H](CC(C)C)NC(=O)CNC(=S)[C@H](Cc1ccccc1)NC(=O)[C@H](CO)NC(=O)[C@H](CC(N)=O)NC(=O)[C@H](Cc1c[nH]c2ccccc12)NC(=O)[C@H](CC(N)=O)NC(=O)[C@H](N)Cc1ccc(O)cc1)C(=O)N[C@@H](Cc1ccccc1)C(N)=O (H-[dY]NWNS[X1]L[Arg(Me)]F-NH2)	%	35.3
CNC(=N)NCCC[C@H](NC(=O)[C@H](CC(C)C)NC(=O)NNC(=O)[C@H](Cc1ccccc1)NC(=O)[C@H](CO)NC(=O)[C@H](CC(N)=O)NC(=O)[C@H](Cc1ccc2ccccc2c1)NC(=O)[C@H](CC(N)=O)NC(=O)[C@H](N)Cc1ccc(O)cc1)C(=O)N[C@@H](Cc1ccccc1)C(N)=O (H-[dY]N[2Nal]NSF[azaGly]L[Arg(Me)]F-NH2)	%	43.6

API: the following record is the query input.
**Q:** Which remaining at 1 h, 100 µM is reported for this compound? CNC(N)=NCCC[C@H](NC(=O)[C@H](CC(C)C)NC(=O)NNC(=O)[C@H](Cc1ccccc1)NC(=O)[C@H](CO)NC(=O)[C@H](CC(N)=O)NC(=O)[C@H](Cc1ccncc1)NC(=O)[C@H](CC(N)=O)NC(=O)[C@H](N)Cc1ccc(O)cc1)C(=O)N[C@@H](Cc1ccccc1)C(N)=O (H-[dY]N[4Pal]NSF[azaGly]L[Arg(Me)]F-NH2)
**A:** 30.7

----------
Quick reference: log10(EC50) of the listed items.
experimental.target: KiSS-1 receptor (Homo sapiens)
Sequence (Q969F8 whole entry): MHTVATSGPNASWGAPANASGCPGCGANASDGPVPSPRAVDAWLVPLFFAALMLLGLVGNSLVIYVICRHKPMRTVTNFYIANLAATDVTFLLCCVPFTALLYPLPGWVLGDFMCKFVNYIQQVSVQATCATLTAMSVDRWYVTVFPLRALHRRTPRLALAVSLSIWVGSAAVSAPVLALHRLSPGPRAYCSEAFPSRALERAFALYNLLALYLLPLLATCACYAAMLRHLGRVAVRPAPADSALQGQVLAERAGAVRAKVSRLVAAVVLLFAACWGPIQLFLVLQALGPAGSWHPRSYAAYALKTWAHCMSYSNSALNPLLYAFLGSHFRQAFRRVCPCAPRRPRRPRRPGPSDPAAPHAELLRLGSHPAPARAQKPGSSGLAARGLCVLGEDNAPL
protocol.notes: Agonist activity at human KISS1R assessed as induction of intracellular calcium mobilization by fluorometric analysis
Starred links: 1 amine or outer side, 2 acyl side, 3 side chain; linkers in the order of their positions; H or OH if unused. Non-standard residues stand in square brackets, D forms with d. Residues, ends and D or L forms follow the SMILES beside them. X1 = O=C(CNC(=S)[C@H](Cc1ccccc1)N[*:1])[*:2]; Arg(Me) = CNC(=N)NCCC[C@H](N)C(=O)O; azaGly = NNC(=O)O
Please note: log10 values; quantity EC50; unit nM.

Known log10(EC50) results, listed for orientation:
molecule	experimental.target	log10(EC50)
CC(C)C[C@H](NC(=O)CNC(=O)[C@H](Cc1ccccc1)NC(=O)[C@H](CO)NC(=O)[C@H](CC(N)=O)NC(=O)[C@H](Cc1c[nH]c2ccccc12)NC(=O)[C@H](CC(N)=O)NC(=O)[C@@H](N)Cc1ccc(O)cc1)C(=O)N[C@@H](CCCNC(=N)N)C(=O)N[C@@H](Cc1ccccc1)C(N)=O [KISSPEPTIN-10]	KiSS-1 receptor (Homo sapiens)	-1.31
CNC(N)=NCCC[C@H](NC(=O)[C@H](CC(C)C)NC(=O)CC(=O)N[C@H](Cc1ccccc1)NC(=O)[C@H](CO)NC(=O)[C@H](CC(N)=O)NC(=O)[C@H](Cc1c[nH]c2ccccc12)NC(=O)[C@H](CC(N)=O)NC(=O)[C@H](N)Cc1ccc(O)cc1)C(=O)N[C@@H](Cc1ccccc1)C(N)=O	KiSS-1 receptor (Homo sapiens)	-0.02
CNC(N)=NCCC[C@H](NC(=O)[C@H](CC(C)C)NC(=O)CNC(=O)[C@H](Cc1ccccc1)NC(=O)[C@H](CO)NC(=O)[C@H](CC(N)=O)NC(=O)[C@H](Cc1c[nH]c2ccccc12)NC(=O)[C@H](CC(N)=O)NC(=O)[C@H](N)Cc1ccc(O)cc1)C(=O)N[C@@H](Cc1ccccc1)C(N)=O	KiSS-1 receptor (Homo sapiens)	-1.19
CNC(N)=NCCC[C@H](NC(=O)[C@H](CC(C)C)NC(=O)NNC(=O)[C@H](Cc1ccccc1)NC(=O)[C@H](CO)NC(=O)[C@H](CC(N)=O)NC(=O)[C@@H](NC(=O)[C@H](CC(N)=O)NC(=O)[C@H](N)Cc1ccc(O)cc1)[C@@H](C)O)C(=O)N[C@@H](Cc1ccccc1)C(N)=O (H-[dY]NTNSF[azaGly]L[Arg(Me)]F-NH2)	KiSS-1 receptor (Homo sapiens)	-0.62
CNC(N)=NCCC[C@H](NC(=O)[C@H](CC(C)C)NC(=O)NNC(=O)[C@H](Cc1ccccc1)NC(=O)[C@H](CO)NC(=O)[C@H](CC(N)=O)NC(=O)[C@H](CO)NC(=O)[C@H](CC(N)=O)NC(=O)[C@H](N)Cc1ccc(O)cc1)C(=O)N[C@@H](Cc1ccccc1)C(N)=O (H-[dY]NSNSF[azaGly]L[Arg(Me)]F-NH2)	KiSS-1 receptor (Homo sapiens)	-0.14

**Q:** log10(EC50) for CNC(N)=NCCC[C@H](NC(=O)[C@H](CC(C)C)NC(=O)CNC[C@H](Cc1ccccc1)NC(=O)[C@H](CO)NC(=O)[C@H](CC(N)=O)NC(=O)[C@H](Cc1c[nH]c2ccccc12)NC(=O)[C@H](CC(N)=O)NC(=O)[C@H](N)Cc1ccc(O)cc1)C(=O)N[C@@H](Cc1ccccc1)C(N)=O ?
**A:** -0.21

**Q:** Reported log10(EC50) for CNC(N)=NCCC[C@H](NC(=O)[C@H](CC(C)C)NC(=O)NNC(=O)[C@H](Cc1ccccc1)NC(=O)[C@H](CO)NC(=O)[C@H](CC(N)=O)NC(=O)[C@H](CC1CCCCC1)NC(=O)[C@H](CC(N)=O)NC(=O)[C@H](N)Cc1ccc(O)cc1)C(=O)N[C@@H](Cc1ccccc1)C(N)=O : what is it?
**A:** -1.00

**Q:** I would be grateful if you could share the reported log10(EC50) for CNC(N)=NCCC[C@H](NC(=O)[C@H](CC(C)C)NC(=O)CNC(=S)[C@H](Cc1ccccc1)NC(=O)[C@H](CO)NC(=O)[C@H](CC(N)=O)NC(=O)[C@H](Cc1c[nH]c2ccccc12)NC(=O)[C@H](CC(N)=O)NC(=O)[C@H](N)Cc1ccc(O)cc1)C(=O)N[C@@H](Cc1ccccc1)C(N)=O (H-[dY]NWNS[X1]L[Arg(Me)]F-NH2) .
**A:** -1.39
